- Target: CLK2 kinase (Homo sapiens, UniProt P49760)
- Sequence (P49760 whole entry): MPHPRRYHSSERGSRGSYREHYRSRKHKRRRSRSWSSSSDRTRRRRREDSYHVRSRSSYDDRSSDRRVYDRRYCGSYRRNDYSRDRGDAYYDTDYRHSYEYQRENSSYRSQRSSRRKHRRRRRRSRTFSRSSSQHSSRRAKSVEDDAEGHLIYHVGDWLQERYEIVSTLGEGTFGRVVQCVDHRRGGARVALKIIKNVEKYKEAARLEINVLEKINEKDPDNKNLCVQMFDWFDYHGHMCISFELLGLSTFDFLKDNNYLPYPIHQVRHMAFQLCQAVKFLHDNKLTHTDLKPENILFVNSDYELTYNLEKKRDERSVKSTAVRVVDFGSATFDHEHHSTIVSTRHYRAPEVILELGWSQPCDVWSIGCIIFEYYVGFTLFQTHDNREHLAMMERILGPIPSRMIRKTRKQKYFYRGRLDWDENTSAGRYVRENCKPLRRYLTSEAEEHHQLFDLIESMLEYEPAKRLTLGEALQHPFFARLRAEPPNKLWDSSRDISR
- Test name: CLK2 kinase activity assay (Z-lyte FRET);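 note: FRET read-out as coumarin to fluorescein emission ratio, unphosphorylated peptide as 0% and phosphorylated peptide as 100% controls, duplicate reactions, non-linear regression fit of dose-response curves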
- Condition: Z-lyte Ser/Thr 6 peptide, 60 μM ATP, 1 h at room temperature
Test readout: EC50 (nM)
Numbers only, in nM.

* Nc1cncc(-c2ccc3[nH]nc(-c4cc5c(-c6ccccn6)ccnc5[nH]4)c3c2)c1 | 3
* c1cncc(-c2ccc3[nH]nc(-c4cc5c(-c6cccnc6)ccnc5[nH]4)c3c2)c1 | 4
* CN1CCN(c2nccc3[nH]c(-c4n[nH]c5ncc(-c6cncc(NC(=O)C7CCCC7)c6)cc45)cc23)CC1 | 9

Quick note, EC50 for "CCNCc1cncc(-c2cnc3[nH]nc(-c4cc5c(-c6cc(F)cc(CNS(C)(=O)=O)c6)cncc5[nH]4)c3c2)c1" landed at 2

----------
Answer each item with its documented pEC50.
- Target: CLK3 kinase (Homo sapiens, UniProt P49761)
- Sequence (P49761 whole entry): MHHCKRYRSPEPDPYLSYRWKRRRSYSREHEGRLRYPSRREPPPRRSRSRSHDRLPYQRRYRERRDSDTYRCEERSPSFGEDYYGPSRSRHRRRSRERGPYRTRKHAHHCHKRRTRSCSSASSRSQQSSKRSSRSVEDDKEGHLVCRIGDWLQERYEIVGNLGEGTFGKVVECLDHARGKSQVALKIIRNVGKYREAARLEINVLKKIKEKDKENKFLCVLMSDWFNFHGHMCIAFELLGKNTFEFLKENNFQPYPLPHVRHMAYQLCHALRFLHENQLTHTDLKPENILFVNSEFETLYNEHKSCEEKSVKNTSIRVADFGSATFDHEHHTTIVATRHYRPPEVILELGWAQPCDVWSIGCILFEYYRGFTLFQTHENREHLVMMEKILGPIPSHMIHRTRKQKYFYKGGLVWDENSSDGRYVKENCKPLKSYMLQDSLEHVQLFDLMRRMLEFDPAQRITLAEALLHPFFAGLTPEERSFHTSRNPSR
- Test name: CLK3 kinase activity assay (Z-lyte FRET);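 note: kinase activity read as coumarin/fluorescein emission ratio by FRET, unphosphorylated peptide as 0% and phosphorylated peptide as 100% control, values from non-linear regression of dose-response curves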
- Condition: Z-lyte Ser/Thr 18 peptide, 156 μM ATP, 1 h at room temperature
Give bare numbers, as −log10 of the molar value.

Reference set, count: 5
- CC(C)CC(=O)Nc1cncc(-c2ccc3[nH]nc(-c4cc5c(-c6ccncc6)nccc5[nH]4)c3c2)c1: 6.88
- CN(C)Cc1cncc(-c2ccc3[nH]nc(-c4cc5cccnc5[nH]4)c3n2)c1: 6.25
- CC(C)Oc1ccc(NC(=O)c2n[nH]c3ccc(-c4cncc(CN5CCCCC5)c4)cc23)cn1: 6.21
- c1cc2[nH]c(-c3n[nH]c4ccc(-c5cncc(CN6CCCCC6)c5)cc34)cc2cn1: 7.55
- CCCC(=O)Nc1cncc(-c2ccc3[nH]nc(-c4nc5c(-c6ccncc6)cncc5[nH]4)c3n2)c1: 6.00

Hi team, please reply with pEC50 for each item in this list.
1. CC(C)Nc1cncc(-c2ccc3[nH]nc(-c4nc5c(-c6cccnc6)cncc5[nH]4)c3n2)c1
2. O=C1CCc2cccc(c2)-c2cncc(c2)NC(=O)c2n[nH]c3ccc(cc23)-c2cncc(c2)CN1

6.67
7.44

----------
- Target: CLK2 kinase (Homo sapiens)
- Test name: CLK2 kinase activity assay (Z-lyte FRET)
- Condition: Z-lyte Ser/Thr 6 peptide, 60 μM ATP, 1 h at room temperature
Answer each item with its documented pEC50.
Numbers only, as −log10 of the molar value.

Reference set, count: 10
- O=C(Nc1cncc(-c2ccc3[nH]nc(-c4nc5c(-c6ccccn6)ccnc5[nH]4)c3n2)c1)c1ccccc1: 8.10
- Cc1ncc(-c2ccc3[nH]nc(-c4nc5c(-c6cccc(F)c6)cccc5[nH]4)c3n2)n1C: 8.52
- CC(C)Nc1cncc(-c2ccc3cnc(NC(=O)C4CCN(CCF)CC4)cc3c2)n1: 8.10
- CN(C)Cc1cncc(-c2cc3c(-c4cc5c(-c6cccc(F)c6)nccc5[nH]4)n[nH]c3cn2)c1: 8.52
- Cc1ccc(-c2nccc3[nH]c(-c4n[nH]c5ccc(-c6cncc(N)c6)cc45)nc23)s1: 8.30
- O=C(Nc1cncc(-c2cc3c(-c4cc5c(N6CCCCC6)nccc5[nH]4)n[nH]c3cn2)c1)C1CCC1: 7.72
- c1cncc(-c2cc3c(-c4nc5c(-c6cccnc6)cccc5[nH]4)n[nH]c3cn2)c1: 7.96
- CN1CCN(c2cccc3[nH]c(-c4n[nH]c5ccc(-c6cncc(CN7CCCCC7)c6)cc45)cc23)CC1: 8.22
- O=C(Nc1cncc(-c2ccc3[nH]nc(-c4nc5c(-c6ccccc6F)ccnc5[nH]4)c3n2)c1)C(F)(F)F: 8.22
- CC(C)Nc1cncc(-c2ccc3[nH]nc(-c4nc5c(-c6ccoc6)nccc5[nH]4)c3c2)c1: 7.72

Hi team, please reply with pEC50 for each item in this list.
1. COc1cncc(-c2ccc3[nH]nc(-c4nc5c(N6CCCCC6)ccnc5[nH]4)c3n2)c1
2. CN1CCN(c2ccc(C(=O)Nc3cc4cc(-c5cnn6c5CN(CCF)CC6)ccc4cn3)cn2)CC1

[8.52, 8.70]

Hi team, please reply with pEC50 for each item in this list.
1. Cc1ccncc1-c1cc2c(-c3nc4c(-c5cc(F)cc(CNS(C)(=O)=O)c5)cncc4[nH]3)n[nH]c2cn1
2. c1cncc(-c2ccc3[nH]nc(-c4nc5c(-c6cccnc6)cncc5[nH]4)c3n2)c1
3. Cc1cc2[nH]nc(C(=O)Nc3ccc(CN4CCCC4)cc3)c2cc1-c1cccnc1

8.70
9.00
8.70
